Details: in 3-pentanone, 353.65 K
readoutType: solubility (mole fraction)
// return just the number, without any unit appended

Return value of solubility (mole fraction) for input CC(C)COc1cccc(B(O)O)c1 , no commentary.
0.488

---

Details: in chloroform, 299.95 K
readoutType: solubility (mole fraction)
// return just the number, without any unit appended

Return value of solubility (mole fraction) for input CC(C)COc1ccc(B(O)O)cc1 , no commentary.
0.0253

---

Details: in chloroform, 341.15 K
readoutType: solubility (mole fraction)
// return just the number, without any unit appended

Return value of solubility (mole fraction) for input CC(C)COc1ccccc1B(O)O , no commentary.
0.7

---

Conditions: in 3-pentanone, 307.15 K
readoutType: solubility (mole fraction)
// return just the number, without any unit appended

Return value of solubility (mole fraction) for input CC(C)COc1cccc(B(O)O)c1 , no commentary.
0.204

---

Details: in methylcyclohexane, 336.05 K
readoutType: solubility (mole fraction)
// return just the number, without any unit appended

Return value of solubility (mole fraction) for input CC(C)COc1ccccc1B(O)O , no commentary.
0.354

---

Settings: in 3-pentanone, 339.15 K
readoutType: solubility (mole fraction)
// return just the number, without any unit appended

Return value of solubility (mole fraction) for input CC(C)COc1cccc(B(O)O)c1 , no commentary.
0.329

---

Settings: in methylcyclohexane, 322.65 K
readoutType: solubility (mole fraction)
// return just the number, without any unit appended

Return value of solubility (mole fraction) for input CC(C)COc1cccc(B(O)O)c1 , no commentary.
0.0343

---

Details: in 3-pentanone, 302.55 K
readoutType: solubility (mole fraction)
// return just the number, without any unit appended

Return value of solubility (mole fraction) for input CC(C)COc1ccccc1B(O)O , no commentary.
0.322

---

Details: in 3-pentanone, 306.05 K
readoutType: solubility (mole fraction)
// return just the number, without any unit appended

Return value of solubility (mole fraction) for input CC(C)COc1ccccc1B(O)O , no commentary.
0.342

---

Conditions: in acetone, 303.65 K
readoutType: solubility (mole fraction)
// return just the number, without any unit appended

Return value of solubility (mole fraction) for input CC(C)COc1ccccc1B(O)O , no commentary.
0.339

---

Details: in 3-pentanone, 319.55 K
readoutType: solubility (mole fraction)
// return just the number, without any unit appended

Return value of solubility (mole fraction) for input CC(C)COc1ccccc1B(O)O , no commentary.
0.455

---

Details: in 3-pentanone, 303.75 K
readoutType: solubility (mole fraction)
// return just the number, without any unit appended

Return value of solubility (mole fraction) for input CC(C)COc1ccc(B(O)O)cc1 , no commentary.
0.146

---

Conditions: in methylcyclohexane, 305.85 K
readoutType: solubility (mole fraction)
// return just the number, without any unit appended

Return value of solubility (mole fraction) for input CC(C)COc1ccccc1B(O)O , no commentary.
0.0208

---

Conditions: in dipropyl ether, 314.65 K
readoutType: solubility (mole fraction)
// return just the number, without any unit appended

Return value of solubility (mole fraction) for input CC(C)COc1cccc(B(O)O)c1 , no commentary.
0.172

---

Conditions: in 3-pentanone, 319.15 K
readoutType: solubility (mole fraction)
// return just the number, without any unit appended

Return value of solubility (mole fraction) for input CC(C)COc1ccccc1B(O)O , no commentary.
0.478

---

Details: in 3-pentanone, 314.15 K
readoutType: solubility (mole fraction)
// return just the number, without any unit appended

Return value of solubility (mole fraction) for input CC(C)COc1cccc(B(O)O)c1 , no commentary.
0.233

---

Settings: in chloroform, 335.05 K
readoutType: solubility (mole fraction)

Return value of solubility (mole fraction) for input CC(C)COc1ccccc1B(O)O , no commentary.
0.618

---

Settings: in methylcyclohexane, 318.15 K
readoutType: solubility (mole fraction)
// return just the number, without any unit appended

Return value of solubility (mole fraction) for input CC(C)COc1ccccc1B(O)O , no commentary.
0.0589

---

This listing pairs compounds with measured solubility (mole fraction).
Settings: in dipropyl ether, 308.45 K
// return just the number, without any unit appended

Return value of solubility (mole fraction) for input CC(C)COc1ccc(B(O)O)cc1 , no commentary.
0.0587

Return value of solubility (mole fraction) for input CC(C)COc1cccc(B(O)O)c1 , no commentary.
0.137

---

Details: in dipropyl ether, 348.65 K
readoutType: solubility (mole fraction)
// return just the number, without any unit appended

Return value of solubility (mole fraction) for input CC(C)COc1ccc(B(O)O)cc1 , no commentary.
0.345

---

Settings: in 3-pentanone, 343.15 K
readoutType: solubility (mole fraction)
// return just the number, without any unit appended

Return value of solubility (mole fraction) for input CC(C)COc1cccc(B(O)O)c1 , no commentary.
0.354

---

Settings: in chloroform, 328.65 K
readoutType: solubility (mole fraction)
// return just the number, without any unit appended

Return value of solubility (mole fraction) for input CC(C)COc1ccccc1B(O)O , no commentary.
0.547

---

Settings: in acetone, 337.75 K
readoutType: solubility (mole fraction)
// return just the number, without any unit appended

Return value of solubility (mole fraction) for input CC(C)COc1ccccc1B(O)O , no commentary.
0.639

---

Details: in methylcyclohexane, 305.15 K
readoutType: solubility (mole fraction)
// return just the number, without any unit appended

Return value of solubility (mole fraction) for input CC(C)COc1ccccc1B(O)O , no commentary.
0.0169

---

Conditions: in 3-pentanone, 331.35 K
readoutType: solubility (mole fraction)
// return just the number, without any unit appended

Return value of solubility (mole fraction) for input CC(C)COc1ccc(B(O)O)cc1 , no commentary.
0.31

---

Settings: in methylcyclohexane, 305.95 K
readoutType: solubility (mole fraction)
// return just the number, without any unit appended

Return value of solubility (mole fraction) for input CC(C)COc1cccc(B(O)O)c1 , no commentary.
0.0033

---

Details: in 3-pentanone, 295.65 K
readoutType: solubility (mole fraction)

Return value of solubility (mole fraction) for input CC(C)COc1ccccc1B(O)O , no commentary.
0.301

---

Conditions: in methylcyclohexane, 329.65 K
readoutType: solubility (mole fraction)

Return value of solubility (mole fraction) for input CC(C)COc1cccc(B(O)O)c1 , no commentary.
0.132

---

Settings: in 3-pentanone, 349.65 K
readoutType: solubility (mole fraction)
// return just the number, without any unit appended

Return value of solubility (mole fraction) for input CC(C)COc1ccc(B(O)O)cc1 , no commentary.
0.411

---

Conditions: in dipropyl ether, 348.75 K
readoutType: solubility (mole fraction)
// return just the number, without any unit appended

Return value of solubility (mole fraction) for input CC(C)COc1ccccc1B(O)O , no commentary.
0.764

---

Conditions: in 3-pentanone, 331.25 K
readoutType: solubility (mole fraction)
// return just the number, without any unit appended

Return value of solubility (mole fraction) for input CC(C)COc1ccccc1B(O)O , no commentary.
0.609

---

Conditions: in methylcyclohexane, 309.95 K
readoutType: solubility (mole fraction)

Return value of solubility (mole fraction) for input CC(C)COc1cccc(B(O)O)c1 , no commentary.
0.0065

---

Settings: in chloroform, 306.65 K
readoutType: solubility (mole fraction)
// return just the number, without any unit appended

Return value of solubility (mole fraction) for input CC(C)COc1cccc(B(O)O)c1 , no commentary.
0.0278

---

Conditions: in methylcyclohexane, 315.75 K
readoutType: solubility (mole fraction)
// return just the number, without any unit appended

Return value of solubility (mole fraction) for input CC(C)COc1cccc(B(O)O)c1 , no commentary.
0.0082

---

Conditions: in chloroform, 297.15 K
readoutType: solubility (mole fraction)

Return value of solubility (mole fraction) for input CC(C)COc1cccc(B(O)O)c1 , no commentary.
0.018

---

Settings: in 3-pentanone, 335.65 K
readoutType: solubility (mole fraction)
// return just the number, without any unit appended

Return value of solubility (mole fraction) for input CC(C)COc1cccc(B(O)O)c1 , no commentary.
0.289

---

Conditions: in chloroform, 355.15 K
readoutType: solubility (mole fraction)
// return just the number, without any unit appended

Return value of solubility (mole fraction) for input CC(C)COc1ccccc1B(O)O , no commentary.
0.895

---

Details: in chloroform, 343.15 K
readoutType: solubility (mole fraction)
// return just the number, without any unit appended

Return value of solubility (mole fraction) for input CC(C)COc1ccc(B(O)O)cc1 , no commentary.
0.254

---

Conditions: in methylcyclohexane, 325.25 K
readoutType: solubility (mole fraction)
// return just the number, without any unit appended

Return value of solubility (mole fraction) for input CC(C)COc1cccc(B(O)O)c1 , no commentary.
0.0556

---

Conditions: in acetone, 355.75 K
readoutType: solubility (mole fraction)
// return just the number, without any unit appended

Return value of solubility (mole fraction) for input CC(C)COc1ccccc1B(O)O , no commentary.
0.901

---

Details: in chloroform, 318.35 K
readoutType: solubility (mole fraction)

Return value of solubility (mole fraction) for input CC(C)COc1cccc(B(O)O)c1 , no commentary.
0.0507
